Tested System: T1, Human TIM-3 Human Fc tagged protein (human, fluorescently labeled with HiLyte Fluor 555 (sites not given))
T1 construct: Bought construct; also called TIM-3 protein tagged with human Fc; ACROBiosystems catalog no: TM3-H5258
Protocol Details: capture slide probed with labeled TIM-3-Fc;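 also: IgG from single CD138-enriched plasma cells, isolated from lymphocytes, immobilized on a derivatized glass slide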
Endpoint Name: binding result

- Binder: "SCT-Fa160 (antibody, V domains shown, murine IgG) VH: QVQLQQPGTELVKPGASVKVSCKASGYTFISYWMHWVKQRPGQGLEWIGNIDPNYGGPNYNEKFKTKATLTVDKSSSTAYMQLSSLTSEDSAVYYCARWGWDGFAYWGQGTLVTVSA VL: DAVMTQTPLSLPVSLGDQASISCRSSQSLENSNGNTYLNWYLQKPGQSPQLLIYRVSNRFSGVLDRFSGSGSGTDFTLKISRVEAEDLGVYFCLQLTHVPYTFGGGTKLEIK"
  Observed Value: "binds"
- Binder: "SCT-Fa179 (antibody, V domains shown, murine IgG) VH: QVQLQQSGAELVRPGTSVKVSCKASGYAFSNYLIEWVKQRPGQGLEWIGVINPGNGGTTYNEKFKDKATLTADRSSTTAYMQLSSLTSEDSAVFFCARTAYGSPLDYWGQGTTLTVSS VL: DIKMTQSPSSMYASRGERVTITCKASQDINRYLSWLQQKPGKSPKTLIYRANRLVDGVPSRFSGSGSGQDYSLTISSLEYEDMGIYYCLQYDEFPYTFGGGTKLEIK"
  Observed Value: "binds"
- Binder: "SCT-Fa095 (antibody, V domains shown, murine IgG) VH: QVQLKESGPGLVAPSQSLSITCTVSGFSLTSSVISWVRQPPGKGLEWLGIIWAGGDTNYNSALKSRLSISKDNSKSQVFLKMNSLQTDDTARYYCARNLNAMDYWGQGTSVTVSS VL: DVLMTQTPLSLTVSLGDQASISCRSSQSIVHSNGNTYLEWFLQKPGQSPKLLIYKVSNRFSGVPDRFSGSGSGTDFTLKISRVEAEDLGVYYCFQGSHVPWTFGGGTKLEIK"
  Observed Value: "binds"
